B1: E3 ubiquitin-protein ligase NEDD4-like, residues 539 to 589; numbered along this chain, Q96PU5 (parent)
chain: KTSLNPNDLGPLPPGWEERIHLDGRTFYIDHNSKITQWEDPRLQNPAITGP

Variants of: B1
protocol-text: abundance fitness (aPCA) (normalised: wild type 0, dead -1); higher = more abundant; growth selection in yeast, the domain comes from the species named
particulars: Homo sapiens
readout: abundance fitness
Please reply with the value in numeric form only.

Guide cases for abundance fitness, answers given:
>>> recorded_measurement("P14L")
-0.204
>>> recorded_measurement("E39T")
-0.105
>>> recorded_measurement("D30Y")
-0.358
>>> recorded_measurement("W38A")
-0.014
>>> recorded_measurement("G10S")
-0.268
>>> recorded_measurement("D8P")
-0.218

Fill blank: measured abundance fitness of the variant W16C is ____.
-0.502

For the variant shown here, T49W , give the reported abundance fitness.
-0.213

Give the measured abundance fitness of Q44I .
-0.016

abundance fitness for G15I ?
-0.429

Given R25I , state its recorded abundance fitness.
-0.757

# get_value(readout='abundance fitness', item= W38G )
-0.249

Could you tell me which abundance fitness is on file for N7E ?
0.001

Given the entry N45A , report its measured abundance fitness.
-0.028

// abundance fitness lookup, key: G24E
-0.719

# input variant: F27R ; wanted: its abundance fitness
-0.163

Data request, read-out abundance fitness, for N5T
-0.203

Returns the measured abundance fitness for the input variant. Input: P14Y
-0.066

Quick one: abundance fitness for F27A ?
-0.112

Returns the measured abundance fitness for the input variant. Input: S33K
0.05

Suppose we examine the variant G50L ; what abundance fitness value has been reported?
0.118

Please give the measured abundance fitness for this variant: P11R
-0.168
